Test target: Peroxisome proliferator-activated receptor gamma (Homo sapiens) (UniProt P37231)
Sequence (P37231 whole entry, looked up): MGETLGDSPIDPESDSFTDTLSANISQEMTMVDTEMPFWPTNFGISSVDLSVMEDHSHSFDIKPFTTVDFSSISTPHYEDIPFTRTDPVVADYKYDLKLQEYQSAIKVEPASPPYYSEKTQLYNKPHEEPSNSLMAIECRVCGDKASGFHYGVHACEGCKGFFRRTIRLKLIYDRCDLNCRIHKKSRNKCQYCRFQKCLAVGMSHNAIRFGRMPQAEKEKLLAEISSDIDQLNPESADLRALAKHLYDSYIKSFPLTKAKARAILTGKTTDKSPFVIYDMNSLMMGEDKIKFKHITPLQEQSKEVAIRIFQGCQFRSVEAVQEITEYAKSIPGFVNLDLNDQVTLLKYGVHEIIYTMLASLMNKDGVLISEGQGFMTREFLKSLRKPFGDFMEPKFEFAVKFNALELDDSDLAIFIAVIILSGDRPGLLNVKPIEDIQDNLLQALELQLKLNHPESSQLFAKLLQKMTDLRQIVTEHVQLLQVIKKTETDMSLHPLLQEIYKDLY
Experimental protocol: ATG_PPARg_TRANS: Attagene TRANS-FACTORIAL HepG2 Assay for human Peroxisome Proliferator-activated Receptor-gamma (PPARg) (AID 2283007)
Inconclusive results are not listed. Activity calls are given as the source filed them. How the source made its calls: active means hit-call score of the fitted dose curve at least 0.9, where 1 is the maximum; inconclusive means response in the unintended direction; inactive means score below 0.9.
Just give me one of these, please: active, inactive

A selection of reference data follows.
Cc1ccc(CCl)cc1 inactive
COC(=O)c1cc(Oc2ccc(Cl)cc2Cl)ccc1[N+](=O)[O-] active
Cl[C@H]1OCCO[C@@H]1Cl inactive
CCOP(=S)(OCC)SCSc1cc(Cl)ccc1Cl inactive

INPUT: Recorded test call requested for OC[P+](CO)(CO)CO
OUTPUT: inactive

INPUT: Write down the call the test reported for this compound. Item: CC[N+](CC)(CC)CC
OUTPUT: inactive

INPUT: Recorded test outcome, item CCCCN(CCCC)C(=S)[S-].CCCCN(CCCC)C(=S)[S-].[Ni+2]
OUTPUT: inactive

###

Experimental protocol: ATG_ERE_CIS: Attagene CIS-FACTORIAL HepG2 Assay for Estrogen Response Element (ERE) (AID 2282940)
Condition info: HepG2 ERE cis-reporter, Attagene RNA transcript; actives raise or lower the signal
Activity calls are given as the source filed them. The calls were made as follows: active = hit-call score of the fitted dose curve at least 0.9, where 1 is the maximum; inactive = score below 0.9.
Entry note: the call must match one of active, inactive

Molecule	Label
OC[P+](CO)(CO)CO	inactive

INPUT: For CCCCOC(=O)COC(=O)c1ccccc1C(=O)OCCCC , which call appears in the assay record?
OUTPUT: inactive

INPUT: What is the recorded call for this molecule in the test? O=C1C=CC(=O)c2ccccc21
OUTPUT: inactive

INPUT: Given Cc1cc(-c2cc(C)c(N)c(C)c2)cc(C)c1N , state the outcome it received in this test.
OUTPUT: inactive

INPUT: What classification did O=[N+]([O-])c1c2ccccc2cc2ccccc12 end up with in this test?
OUTPUT: active

INPUT: Can you look up the reported call for CCCCCCCCCCBr for me?
OUTPUT: inactive

INPUT: Hello, I am checking results. What call was entered for OC[C@@H](O)[C@H]1O[C@@H]2O[C@H](C(Cl)(Cl)Cl)O[C@@H]2[C@H]1O ?
OUTPUT: inactive

INPUT: Test call, this molecule: NNCCO
OUTPUT: active

INPUT: Hi, sorry to bother you, what did the test record for O=C(NC(=O)c1c(F)cccc1F)Nc1cc(Cl)c(F)c(Cl)c1F ?
OUTPUT: inactive

INPUT: Each molecule tested received a call. Report the one for CCCCOC(C)=O .
OUTPUT: inactive

INPUT: Tell me the recorded outcome of this test for O=c1[nH]c2ccccc2n1C1CCN(CCCC(c2ccc(F)cc2)c2ccc(F)cc2)CC1 .
OUTPUT: active

INPUT: Check the results log: what was the call for CCOC(=O)OC1=C(c2cc(C)ccc2C)C(=O)NC12CCC(OC)CC2 (stereo not drawn) ?
OUTPUT: inactive

INPUT: Fill in: this test's call for BrCCCCBr is ___
OUTPUT: inactive

###

Experimental protocol: ATG_SREBP_CIS: Attagene CIS-FACTORIAL HepG2 Assay for human Sterol Regulatory Element Binding (SREBP) (AID 2282962)
Condition info: HepG2 Attagene cis-factorial SREBP reporter, mRNA; actives raise or lower the signal
Calls of active or inactive are those of the source. Rule for the calls: active = hit-call score of the fitted dose curve at least 0.9, where 1 is the maximum; inactive = score below 0.9.
Test readout: AC50

Solved entries:
Molecule	AC50
O=C(NC(=O)c1c(F)cccc1F)Nc1cc(Cl)c(F)c(Cl)c1F	inactive
Cc1ccccc1OP(=O)(Oc1ccccc1)Oc1ccccc1	7.9 µM (active)
CCOc1cc(C=O)ccc1O	inactive
Clc1cccc(Cl)c1Cl	inactive
Oc1cc(Cl)c(Cl)cc1Cl	136 µM (active)

INPUT: Return reported AC50; argument: CC(C)CC(C)(c1ccc(O)cc1)c1ccc(O)cc1
OUTPUT: inactive

INPUT: Which AC50 is reported for this molecule? CCCCC(CC)COC(=O)Cl (stereo not drawn)
OUTPUT: inactive

INPUT: // AC50 lookup, key: O=C(N[C@H]1CN2CCC1CC2)c1ccc2c(c1)OCCO2
OUTPUT: inactive

###

Experimental protocol: BSK_SAg_SRB: Viability Assessment in the BioMAP Diversity Plus: SAg Assay (AID 2283096);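 further: cells read one day after compound addition; hits may be either gain or loss of signal compared with DMSO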
Condition info: primary human HUVEC with PBMC
Calls of active or inactive are those of the source. The calls were made as follows: active = hit-call score of the fitted dose curve at least 0.9, where 1 is the maximum; inactive = score below 0.9.
Select the correct class. Options are active, inactive and nothing else.

INPUT: What classification did Cc1cccc(OP(=O)(Oc2cccc(C)c2)Oc2cccc(C)c2)c1 end up with in this test?
OUTPUT: inactive

INPUT: What did this assay record as the result for CCOC(=O)CC(=O)CCl ?
OUTPUT: inactive

INPUT: # outcome recorded in this test, key = CC1(C)[C@H](C(=O)O[C@H](C#N)c2cccc(Oc3ccccc3)c2)[C@@H]1/C=C(\Cl)C(F)(F)F
OUTPUT: inactive

INPUT: Returns: the outcome recorded for O=S(=O)(C(Cl)(Cl)Cl)C(Cl)(Cl)Cl in this assay.
OUTPUT: active

INPUT: I'd appreciate the recorded outcome for COc1ccccc1N from this test.
OUTPUT: inactive

###

Test target: Bile acid receptor (Homo sapiens) (UniProt Q96RI1)
Sequence (Q96RI1 whole entry, looked up): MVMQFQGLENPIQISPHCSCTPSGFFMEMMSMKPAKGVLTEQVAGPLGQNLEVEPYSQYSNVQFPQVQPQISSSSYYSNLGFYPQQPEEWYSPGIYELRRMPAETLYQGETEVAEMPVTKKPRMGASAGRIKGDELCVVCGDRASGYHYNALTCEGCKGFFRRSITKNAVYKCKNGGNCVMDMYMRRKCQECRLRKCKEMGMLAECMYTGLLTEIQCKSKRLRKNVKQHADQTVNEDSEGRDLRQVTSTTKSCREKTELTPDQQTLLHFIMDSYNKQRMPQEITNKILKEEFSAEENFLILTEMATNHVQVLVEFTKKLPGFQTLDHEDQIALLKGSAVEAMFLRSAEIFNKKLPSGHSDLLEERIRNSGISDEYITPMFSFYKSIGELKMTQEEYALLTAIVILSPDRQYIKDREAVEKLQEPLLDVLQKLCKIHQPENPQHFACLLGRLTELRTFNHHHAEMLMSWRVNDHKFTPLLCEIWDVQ
Experimental protocol: ATG_IR1_CIS: Attagene CIS-FACTORIAL HepG2 Assay for human Nuclear Receptor Subfamily 1 Group H Member 4 (NR1H4), IR1 submotif (AID 2282946)
Condition info: IR1 reporter transcription, actives raise or lower the signal
Procedure: ATG_CIS is a cell-based, multiplexed-readout assay that uses HepG2, a human liver cell line, with measurements taken at 24 hours after chemical dosing in a 24-well plate.ATG_IR1_CIS is one of 52 assay component(s) measured or calculated from the ATG_CIS assay. […] This assay endpoint, ATG_IR1_CIS, was analyzed with bidirectional fitting relative to DMSO as the negative control and baseline of activity. […]
The source made the active and inactive calls. How the source made its calls: active means hit-call score of the fitted dose curve at least 0.9, where 1 is the maximum; inactive means score below 0.9.
Parameter call: string, one of true (1) for active, false (0) for inactive

Examples from the recorded data:
Molecule	Label
CCCCCCCCCCCCCCC(Br)C(=O)O (configuration not stated)	false (0)
CC(=O)C(F)(F)C(F)(F)F	false (0)
CC(=Cc1ccccc1)[N+](=O)[O-]	true (1)
C[N+](C)(C)Cc1ccccc1	false (0)
Fc1cccc(Cl)c1CCl	false (0)

INPUT: What outcome does the record of this test show for [F][Sn]([c]1ccccc1)([c]1ccccc1)[c]1ccccc1 ?
OUTPUT: true (1)

INPUT: GET /call?item= Cc1ccccc1OP(=O)(Oc1ccccc1)Oc1ccccc1 returns the recorded outcome of this test.
OUTPUT: true (1)

###

Experimental protocol: ATG_E_Box_CIS: Attagene CIS-FACTORIAL HepG2 Assay for human Enhancer Box (E-box) (AID 2282936)
Condition info: HepG2 E-box cis-reporter transcription, actives raise or lower the signal
Activity calls are given as the source filed them. The calls were made as follows: active = hit-call score of the fitted dose curve at least 0.9, where 1 is the maximum; inactive = score below 0.9.
Test readout: outcome

Here is how some compounds turned out for outcome.
O=C(CCl)NCO inactive
Nc1ccc(Br)cc1 inactive
CCCCCCCCCCBr inactive
CCOc1cc(C=O)ccc1O inactive
CCC[CH2][Sn]([Cl])([Cl])[CH2]CCC inactive

INPUT: Would you mind telling me what outcome value was observed for Oc1ccc(Cc2ccc(O)cc2)cc1 ?
OUTPUT: inactive

###

Read-out: Thrombomodulin, THBD (gene 7056)
Experimental protocol: BSK_CASM3C_Thrombomodulin: BioMAP Diversity Plus: CASM3C Assay for Thrombomodulin Biomarker Activity (AID 2283051);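 further: thrombomodulin protein level measured by ELISA 24 h after dosing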
Condition info: primary human coronary artery smooth muscle cells; actives raise or lower the signal
Active and inactive are the calls of the source. The calls were made as follows: active = hit-call score of the fitted dose curve at least 0.9, where 1 is the maximum; inactive = score below 0.9.
Can you answer with just one of these options? YES = active, NO = inactive

Compound	Label
COc1ccccc1N	NO
O=C(O)C1(c2ccc3c(c2)OC[C@H](Cc2ccc(-c4ccccc4)cc2)[C@H]3O)CCCC1	NO
O=C(Cc1ccccc1)OCCc1ccccc1	NO
Oc1ccc(Cc2ccc(O)cc2)cc1	NO

INPUT: Recorded test outcome, item CCCCOC(=O)COC(=O)c1ccccc1C(=O)OCCCC
OUTPUT: NO

INPUT: Which outcome did this test record for the compound O=[N+]([O-])c1cccc2ccccc12 ?
OUTPUT: NO

INPUT: What classification did N#CCCC(Br)(C#N)CBr (stereo not given) end up with in this test?
OUTPUT: YES

###

Experimental protocol: BSK_3C_Vis: BioMAP Diversity Plus: 3C Assay for Morphology Visualization (AID 2283025);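 further: fitted both ways so gain or loss versus DMSO counts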;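 on AC50: light microscopy image of cell morphology used as background control; cells imaged 24 h after dosing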
Condition info: primary human endothelial cells (HUVEC)
The source made the active and inactive calls. Rule for the calls: active = hit-call score of the fitted dose curve at least 0.9, where 1 is the maximum; inactive = score below 0.9.
Test readout: AC50

Compound	Test readout	Val
O=C1C=CC(=O)c2ccccc21	AC50	4.06 µM (active)
COc1ccccc1N	AC50	inactive
Nc1c(Oc2ccccc2)cc(O)c2c1C(=O)c1ccccc1C2=O	AC50	inactive
c1ccc2sc(SNC3CCCCC3)nc2c1	AC50	inactive
CCOP(=O)(OCC)OC(=CCl)c1ccc(Cl)cc1Cl	AC50	37.4 µM (active)
Cc1cc(C(C)(C)c2ccc(O)c(C)c2)ccc1O	AC50	18.7 µM (active)
CCCCN(CCCC)C(=S)[S-].CCCCN(CCCC)C(=S)[S-].[Ni+2]	AC50	inactive
O=S(=O)(c1ccc(Cl)cc1)c1cc(Cl)c(Cl)cc1Cl	AC50	13.6 µM (active)
OC(Cc1ccccc1Cl)(Cn1[nH]cnc1=S)C1(Cl)CC1 (configuration not stated)	AC50	inactive
Cc1ccc2nc3sc(=O)sc3nc2c1	AC50	9.8 µM (active)

INPUT: Need AC50, item Cc1ccccc1OP(=O)(Oc1ccccc1)Oc1ccccc1
OUTPUT: 11.6 µM (active)

INPUT: Entry under review: Nc1ccc(N)cc1 . Reported AC50?
OUTPUT: 19.9 µM (active)

INPUT: What AC50 value was documented for this compound, Oc1c(Cl)cc(Cl)cc1Cl ?
OUTPUT: inactive

INPUT: Give the measured AC50 of CCOC(=O)C(SP(=S)(OC)OC)c1ccccc1 (configuration not stated) .
OUTPUT: 37.5 µM (active)

INPUT: Suppose we examine the compound CCN(CC)C(=O)C(Cl)=C(C)OP(=O)(OC)OC ; what AC50 value has been reported?
OUTPUT: inactive

INPUT: Quick one: AC50 for CCOC(=O)CC(=O)CCl ?
OUTPUT: inactive

INPUT: Recorded AC50 for Clc1cccc(Cl)c1 , please?
OUTPUT: inactive
